- SYSTEM UNDER TEST: RORγt (Homo sapiens)
- Sequence (P51449 1-497 isoform P51449-2, species assumed): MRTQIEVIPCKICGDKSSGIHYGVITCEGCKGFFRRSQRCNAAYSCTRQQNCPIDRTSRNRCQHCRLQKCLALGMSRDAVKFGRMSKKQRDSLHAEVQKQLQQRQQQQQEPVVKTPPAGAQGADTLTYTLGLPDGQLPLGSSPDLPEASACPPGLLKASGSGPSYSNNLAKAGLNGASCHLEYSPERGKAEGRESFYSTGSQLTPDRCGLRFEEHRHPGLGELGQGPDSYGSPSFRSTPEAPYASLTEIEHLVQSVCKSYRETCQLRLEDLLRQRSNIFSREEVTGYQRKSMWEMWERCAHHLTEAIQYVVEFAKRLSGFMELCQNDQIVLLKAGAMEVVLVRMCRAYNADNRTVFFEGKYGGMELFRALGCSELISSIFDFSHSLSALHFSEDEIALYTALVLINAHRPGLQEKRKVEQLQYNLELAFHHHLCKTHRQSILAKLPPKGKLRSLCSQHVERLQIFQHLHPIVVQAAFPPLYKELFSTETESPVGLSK
- EXPERIMENT SUMMARY: Cofactor recruitment test (Alpha Screen, biotinylated SRC-1 peptide)
- Type: biochemical
- CONDITION CONTEXT: read-out: signal value inhibitory rate (%) at test compound 1 μM
Answer each item with its documented inhibition at 1 µM.

Exercise: Please give the measured inhibition at 1 µM for this compound: COCc1ccc([C@@H](NC(=O)N2CC[C@H](O)C2)C(=O)Nc2ccc([Si](C)(C)C)c(F)c2)cc1
Key: 94.3%

Exercise: Please give the measured inhibition at 1 µM for this compound: CC(C)(C)c1ccc(NC(=O)[C@H](NC(=O)C(O)C(F)(F)F)C2CCOCC2)cc1Cl (single isomer, unassigned)
Key: 32%

Exercise: Please give the measured inhibition at 1 µM for this compound: COc1ccc(C(NC(=O)C2CNC(=O)C2)C(=O)Nc2ccc([Si](C)(C)C)c(C#N)c2)cc1 (stereo not shown)
Key: 92.5%

Exercise: Please give the measured inhibition at 1 µM for this compound: COCc1ccc([C@@H](NC(=O)Cn2cnccc2=O)C(=O)Nc2ccc([Si](C)(C)C)c(F)c2)cc1
Key: 97.8%

Exercise: Please give the measured inhibition at 1 µM for this compound: COCc1ccc(C(NC(=O)Cc2nnc(C)o2)C(=O)Nc2cc(F)c([Si](C)(C)C)cc2F)cc1 (stereo not shown)
Key: 95.7%

Exercise: Please give the measured inhibition at 1 µM for this compound: COCc1ccc([C@@H](NC(=O)N2CC[C@@H](F)C2)C(=O)Nc2ccc([Si](C)(C)C)c(F)c2)cc1
Key: 93.8%

Exercise: Please give the measured inhibition at 1 µM for this compound: COCc1ccc(C(NC(=O)C2CNC(=O)C2)C(=O)Nc2ccc([Si](C)(C)C)c(F)c2)cc1 (stereo not shown)
Key: 95.6%
